Where do these numbers come from? They come from ChEMBL document CHEMBL1127715.

testTarget: Substance-P receptor (Cavia porcellus)
Sequence (P30547 whole entry): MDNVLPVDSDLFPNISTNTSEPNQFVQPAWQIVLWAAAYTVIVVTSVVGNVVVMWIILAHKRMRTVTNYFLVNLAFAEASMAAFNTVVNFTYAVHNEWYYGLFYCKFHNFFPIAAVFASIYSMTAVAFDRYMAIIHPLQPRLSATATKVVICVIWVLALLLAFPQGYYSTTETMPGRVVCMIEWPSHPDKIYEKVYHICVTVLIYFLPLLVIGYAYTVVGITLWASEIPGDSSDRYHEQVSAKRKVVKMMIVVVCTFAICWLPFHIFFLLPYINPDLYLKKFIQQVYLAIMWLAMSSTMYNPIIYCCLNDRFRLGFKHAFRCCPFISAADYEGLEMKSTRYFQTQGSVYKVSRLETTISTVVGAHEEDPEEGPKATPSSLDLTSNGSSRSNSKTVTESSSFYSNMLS

- compound: "COc1ccccc1[C@H](C)C(=O)N1CC2[C@@H](C1)C(c1ccccc1)(c1ccccc1)CC[S+]2[O-] (stereo partly specified)"
  unitName: "nM"
  IC50: 70

###

testTarget: Substance-P receptor (Homo sapiens)
measurementDescription: Compound was evaluated for its affinity, measured in [3H]SP binding assay on human IM9 lymphoblast cultured cell line
pIC50: −log10 of the molar value.

- compound: "COc1ccccc1[C@H](C)C(=O)N1CC2[C@@H](C1)C(c1ccccc1)(c1ccccc1)CC[S+]2[O-] (stereo partly specified)"
  pIC50: 7.31

###

testTarget: Substance-P receptor (Homo sapiens, UniProt P25103)
Sequence (P25103 whole entry): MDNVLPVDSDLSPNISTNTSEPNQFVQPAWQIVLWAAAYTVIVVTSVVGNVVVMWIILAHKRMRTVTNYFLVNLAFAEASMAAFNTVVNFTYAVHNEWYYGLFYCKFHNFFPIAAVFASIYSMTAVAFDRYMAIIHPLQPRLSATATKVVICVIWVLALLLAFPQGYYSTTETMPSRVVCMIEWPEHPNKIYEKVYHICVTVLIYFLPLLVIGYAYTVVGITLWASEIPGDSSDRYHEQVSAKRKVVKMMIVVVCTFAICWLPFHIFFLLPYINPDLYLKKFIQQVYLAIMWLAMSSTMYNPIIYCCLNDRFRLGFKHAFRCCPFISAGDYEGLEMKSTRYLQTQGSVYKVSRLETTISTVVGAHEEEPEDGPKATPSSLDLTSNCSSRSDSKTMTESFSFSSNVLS
measurementDescription: Compound was evaluated for binding affinity against human Tachykinin receptor 1
metricName: IC50 (nM)

- compound: "COc1ccccc1[C@H](C)C(=O)N1CC2[C@@H](C1)C(c1ccccc1)(c1ccccc1)CC[S+]2[O-] (stereo partly specified)"
  unitName: "nM"
  measValue: 23
